- Tested on: M14 melanoma
- experiment_description: NCI tumour cell line growth inhibition, 48 h; in the data active = GI50 below about 0.43 µM; inactive = the rest
Possible outcomes: active, inactive

>>> category_label("C[C@]12CCC(=O)C[C@@H]1CC[C@@H]1[C@@H]2CC[C@]2(C)[C@@H](OC(=O)N(CCCl)N=O)CC[C@@H]12")
"inactive"
>>> category_label("COc1cc(-c2ccc[nH]2)[nH]c1/C=C1\\N=C(C)C(CC(=O)OCC(C)(C)C)=C1C")
"active"
>>> category_label("O=C(NCCNCCO)c1ccc(Nc2nc3ccccc3c3occc23)cc1")
"inactive"
>>> category_label("O=C1/C(=C/c2ccc([N+](=O)[O-])o2)Oc2ccc(Cl)cc21")
"inactive"
>>> category_label("COc1ccc2nc3ccccc3c(NCCNCC(C)O)c2c1 (stereo not drawn)")
"active"
>>> category_label("COC(=O)CC1=C(C)/C(=C/c2[nH]c(-c3ccc[nH]3)cc2OC)N=C1C")
"active"
>>> category_label("CC12O[C@H](C[C@@H](OC(=O)CCC(=O)O)[C@H]1O)n1c3ccccc3c3c4c(c5c6ccccc6n2c5c31)C(=O)NC4=O")
"active"
>>> category_label("CC1=C(C(=O)Nc2ccc(Cl)c(Cl)c2)C(c2cccc(Cl)c2)NC(=S)N1 (stereo not drawn)")
"inactive"

###

- Test system: SF-539 CNS
- experiment_description: NCI tumour cell line growth inhibition, 48 h
measure: TGI (µM)

>>> value_reported("COc1ccc2c(c1)/c(=C/C#N)c1c3ccccc3[n+](C)n21")
11.8
>>> value_reported("COc1ccc(-c2c(-c3ccc(C#N)c(F)c3)nc(N3CCC(N)CC3)n(C)c2=O)cc1F")
29.3
>>> value_reported("COc1ccc2c(c1)-c1c(c3cc(OC)ccc3n(CCN(C)C)c1=O)C2=O")
8.58
>>> value_reported("CSc1ccc(C(=O)/C=C/c2ccc(Cl)cc2Cl)cc1")
46.9
>>> value_reported("CCN1C(=O)N(CC)C2C1N=C(SC)N2/N=C/C=C/c1ccccc1OC (stereo unspecified)")
1.69
>>> value_reported("COC(=O)c1c(O)ccc2c1c1c(n2Cc2cccc(C)c2)C(=O)c2ccccc2C1")
61.4
>>> value_reported("COc1cc(O)c(Cc2ccccc2O)c(O)c1C(=O)CCc1ccccc1")
15.7
>>> value_reported("CCCCCCCCCCCCOC1C(COCCN2CCCCC2)OC2OC(C)(C)OC21 (stereo unspecified)")
3.18
>>> value_reported("CC1OC(O[C@@H]2C=C3CC[C@@H]4[C@H](CC[C@]5(C)[C@@H](c6ccc(=O)oc6)CC[C@]45O)[C@@]3(C)CC2)C(O)C(OC2OC(CO)C(O)C(O)C2O)C1O (stereo partly specified)")
0.000699
>>> value_reported("COc1cc(-c2ccc[nH]2)[nH]c1/C=C1\\N=C(C)C(CC(=O)OCC(C)(C)C)=C1C")
1.6
>>> value_reported("COc1ccc2nc3ccccc3c(NCCCCN(CCCl)CCCl)c2c1")
1.26

###

- System: RXF 393 renal
- experiment_description: NCI tumour cell line growth inhibition, 48 h
measure: TGI (µM)

>>> value_reported("COC(=O)c1c(O)ccc2c1c1c(n2Cc2cccc(C)c2)C(=O)c2ccccc2C1")
30
>>> value_reported("S=C(SSC(=S)N1CCCCC1)N1CCCCC1")
35.8
>>> value_reported("Fc1ccc(C(OCCN2CCC3CCC(C2)N3C/C=C/c2cccs2)c2ccc(F)cc2)cc1 (stereo not given)")
16.3
>>> value_reported("CCSc1nc(N/N=C/c2cccs2)c2cnn(CO)c2n1")
13.9
>>> value_reported("N#Cc1c(N)nc(N2CCOCC2)c(C#N)c1-c1c(Cl)cccc1Cl")
28.3
>>> value_reported("CN1CCN(c2ccc(NC3=CC(=O)c4ncncc4C3=O)cc2)CC1")
2.61
